Provide the reported kon of each item.
# system: recombinant human ATX beta isoform with N-terminal purification tag (human, UniProt Q13822 49-863)
# assayProcedure: SPR Biacore 3000, His-ATX beta captured on anti-Penta-His, mAb as analyte, bivalent analyte model
One number for each entry, in M⁻¹ s⁻¹.

# binder, measuredQuantity, obsValue
measured = [
    ("mAb ATXB8 (antibody, V domains shown, Human IgG1/kappa from Fab F96) VH: QVQLVQSGAEVKKPGSSVKVSCKASGGTFSSYAISWVRQAPGQGLEWMGGIIPIFGTANYAQKFQGRVTITADESTSTAYMELSSLRSEDTAVYYCARDSSAYGDFDYWGQGTLVTVSS VL: DIQMTQSPSSLSASVGDRVTITCRASQSIDGWLNWYQQKPGKAPKLLIYAASSLQSGVPSRFSGSGSGTDFTLTISSLQPEDFATYYCQQSYSTPLTFGQGTKVEIK", "kon", 249000),
    ("mAb ATXB6 (antibody, V domains shown, Human IgG1/kappa from Fab F73) VH: QVQLVQSGAEVKKPGSSVKVSCKASGGTFSSYAISWVRQAPGQGLEWMGGIIPIFGTANYAQKFQGRVTITADESTSTAYMELSSLRSEDTAVYYCARDLYIYGDLDYWGQGTLVTVSS VL: DIQMTQSPSSLSASVGDRVTITCRASQSIGGWLNWYQQKPGKAPKLLIYTASSLQSGVPSRFSGSGSGTDFTLTISSLQPEDFATYYCQQSYTYPITFGQGTKVEIK", "kon", 444000),
]

Prompt line: Look up kon for this binder: mAb ATXB14 (antibody, V domains shown, Human IgG1/kappa from Fab F104) VH: QVQLVQSGAEVKKPGSSVKVSCKASGGTFSSYAISWVRQAPGQGLEWMGGIIPIFGNTNYAQKFQGRVTITADESTSTAYMELSSLRSEDTAVYYCARDISGYGDLDYWGQGTLVTVSS VL: DIQMTQSPSSLSASVGDRVTITCRASQSIDGWLNWYQQKPGKAPKLLIYAASSLQSGVPSRFSGSGSGTDFTLTISSLQPEDFATYYCQQSYSTPLTFGQGTKVEIK
Response line: 789000
